tested on: MOLT-4 leukemia; assay: NCI tumour cell line growth inhibition, 48 h
measure: TGI

Worked set:
compound | test_value
CCOC(=O)CN(c1ccccc1)c1nc(=[N+](C)C)ss1 | 28.2 µM
CCCCCCCCCCCCSC(=S)c1c(C)[nH]n(CCCCCCCCCCCC)c1=O | > 100 µM
COC(=O)C(=O)C(/C(=N/N)C(=O)Nc1ccccc1C(N)=O)c1nc2ccc([N+](=O)[O-])cc2[nH]c1=O (centres undefined) | > 100 µM

// "Cc1ccccc1Nc1nc(NNC(=O)Cc2ccccc2)nc(NNC(=O)c2ccncc2)n1" : TGI value = > 10 µM

Per the records, this compound ( "CCOC(=O)c1cc(NS(=O)(=O)c2ccc(C)cc2)cc(C(=O)OCC)c1" ) has TGI equal to > 100 µM

The compound "CN(C)CCNC(=O)c1ccc2oc3cc4ccccc4c(=O)n3c2c1" showed TGI equal to > 100 µM

// TGI lookup, compound = "Cc1cc(=O)n2c3c(c4c(cc13)c(CN(C)C)cc(=O)n4C)OC2" , result: > 100 µM

So for "Cc1[nH]nc2ncc(C(=O)N3CCC[C@H]3c3ccc(Cl)cc3)cc12" , the logged TGI turned out to be > 100 µM

Measured TGI of "CCOC(=O)N/N=C(\CC)OCC" : > 100 µM

The measured TGI associated with CN1C(=O)C2(c3ccccc31)C1CC3C(CO1)C1C2C3(CO)CN1C#N (centres undefined) reads > 100 µM

# compound CCOC(=O)C12CC(C)=C(C)CC1CCCc1ccccc12 (centres undefined) ; its TGI = 52.3 µM

Entry under test: COc1cc(C2OC[C@@H]3C(=O)OC[C@H]23)cc(O)c1OC (some centres undefined) . Its TGI was > 100 µM

compound "Cc1ccc(-c2nnc3s/c(=C\c4ccc(N(C)C)cc4)c(=O)n23)cc1" , TGI observed: > 100 µM

For this compound ( S=C1CC(c2ccccc2)Sc2cc(Cl)ccc2N1 (centres undefined) ), measured TGI is 28.2 µM
